Exercise: state measured binding signal for each of the sequences provided.
- SYSTEM: OsSMF1 (Oryza sativa, UniProt Q6ZLB0 1-436)
- Sequence: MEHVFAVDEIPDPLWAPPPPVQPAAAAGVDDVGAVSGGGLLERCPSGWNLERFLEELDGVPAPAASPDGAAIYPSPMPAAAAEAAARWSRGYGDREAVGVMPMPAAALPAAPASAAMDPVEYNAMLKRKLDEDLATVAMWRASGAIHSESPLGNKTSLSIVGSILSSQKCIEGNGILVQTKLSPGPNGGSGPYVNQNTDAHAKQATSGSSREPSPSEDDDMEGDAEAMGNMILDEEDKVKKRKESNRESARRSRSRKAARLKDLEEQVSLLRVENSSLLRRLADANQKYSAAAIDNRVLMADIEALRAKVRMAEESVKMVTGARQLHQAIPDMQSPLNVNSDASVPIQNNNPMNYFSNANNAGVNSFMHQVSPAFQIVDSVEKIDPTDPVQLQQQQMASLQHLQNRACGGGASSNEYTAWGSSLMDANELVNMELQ
- ASSAY OVERVIEW: protein-binding microarray (RPBM); PBS, 2% BSA, 51.3 ng/ul salmon testes DNA, 50 uM zinc acetate, 200 nM TF, 25 C, 1 h; high values mean tight binding
- EXPERIMENTAL CONTEXT: protein: recombinant; tags: N-terminal polyhistidine and DsRed monomer fusion (pET32a); chain copies: 2; label: CyDye5-dUTP incorporated in the synthesized complementary strand; 3' TTTTT single-stranded linker to array surface; dsDNA, one strand shown
Over roughly 39,000 sequences, “fluorescence intensity (a.u.)” has its median near 4,300; the highest 2% begin near 39,000. The list comes from a sample in which the highest values are over-represented; it also holds close analogues and randomly drawn sequences.

CAAGATGGGTCGGGTTGGGTGGGGTTACTCGCACTAGCACCGGAGTCACCTAGTGCAG; 3160 fluorescence intensity (a.u.)

I need binding signal for every entry listed below, if you could help.
1. GCCTAATTACATCATGATTTGACAATGTTGTGCTACAGTACGGAGTCACCTAGTGCAG
2. ATAAGTACGAATACTAAGTACGTGTGTGTTTGGAGGGTGTCGGAGTCACCTAGTGCAG
3. GTCCCCGGCCTCGGCGCGCGGCGAGCACCGTGCCGCCCCACGGAGTCACCTAGTGCAG
4. AGCCTCTTCCATCTCGAGCCAGCTCATATTGATTATCCAACGGAGTCACCTAGTGCAG
5. ATAACAGCGGGCCTTACGTGTACATGATAGTATATAGTACCGGAGTCACCTAGTGCAG
6. AAGCTAGTCACACATCACCATCACACACACCAAGCCACACCGGAGTCACCTAGTGCAG
7. TTGAAACTGTGCATGCGCATCACCTTCATGCCCAAAATTTCGGAGTCACCTAGTGCAG

["4210 fluorescence intensity (a.u.)", "4340 fluorescence intensity (a.u.)", "24000 fluorescence intensity (a.u.)", "4850 fluorescence intensity (a.u.)", "7000 fluorescence intensity (a.u.)", "4460 fluorescence intensity (a.u.)", "3160 fluorescence intensity (a.u.)"]

Quick batch: binding signal for everything below.
1. CCTCCGACATCTCCAGCCAATTCCAGCTCAGCTCTCGCCGCGGAGTCACCTAGTGCAG
2. CACTGCCCATTCGCCACGTCCCCTAACGCTCCAGGTTTATCGGAGTCACCTAGTGCAG
3. CACCACTACCACGATCAGGCCCAAGAGATGATAAAGTGGCCGGAGTCACCTAGTGCAG
4. CAAACAAGGACCGTAGACACTCTAACCAACCCCAATAACACGGAGTCACCTAGTGCAG
5. CCCATAACTGAATTGTTAATTTTGTCACGCGAGCAACGCACGGAGTCACCTAGTGCAG
6. CCGTTTCCGAATCTCGAGGCGCAAGAGGCCATCGAACGGCCGGAGTCACCTAGTGCAG
7. TCTTCTGAATGCTCACAATGACGCCATCCTCATCAGCCGCCGGAGTCACCTAGTGCAG
8. TTTCCGCTATCGCGGTGCGCGCGGAAGGCCCCGCTGCGGCCGGAGTCACCTAGTGCAG

4150 fluorescence intensity (a.u.)
11800 fluorescence intensity (a.u.)
46500 fluorescence intensity (a.u.)
31300 fluorescence intensity (a.u.)
19300 fluorescence intensity (a.u.)
38300 fluorescence intensity (a.u.)
4480 fluorescence intensity (a.u.)
39200 fluorescence intensity (a.u.)

For every record below, what is its binding signal?
1. AGGGCGAGGAGGCGCTTGAGGGCGTCGAGCTTGTCGGCATCGGAGTCACCTAGTGCAG
2. GGCAGCGACCACGACACGTCGTTGTTCCCTCTGCTCCCGCCGGAGTCACCTAGTGCAG

28400 fluorescence intensity (a.u.)
6470 fluorescence intensity (a.u.)

State the recorded binding signal for every item in the following list.
1. GGAGCTGAGGAGGGACAGCGAGCCAGCGAGGGAGGTGGGGCGGAGTCACCTAGTGCAG
2. AAAAGCAAAAGCAAAAGAAACACGTCCTTATTCCTCTCTCCGGAGTCACCTAGTGCAG
3. ACCAACGAACGGACGCTGTCATGTCACCTCTCTTAATCTTCGGAGTCACCTAGTGCAG
4. TGCCAAATGTTGAAACACTTACAGTAGCATCTAATGAAGTCGGAGTCACCTAGTGCAG
5. GATCAACCTTATTTCTGCAAGCAAATCAAAGAAACAAGCACGGAGTCACCTAGTGCAG
6. CACGGCCTCACCTCCCAGCCCGCGAGCACCGGCGGACGGACGGAGTCACCTAGTGCAG

3160 fluorescence intensity (a.u.)
3910 fluorescence intensity (a.u.)
3740 fluorescence intensity (a.u.)
16000 fluorescence intensity (a.u.)
41700 fluorescence intensity (a.u.)
42400 fluorescence intensity (a.u.)

Give one value of binding signal per listed sequence.
1. GGTAATGGGAGAGGCTGATGTGGCGTGAAATCTCTTGCGTCGGAGTCACCTAGTGCAG
2. ACACTCTCGATGTATAGATTCACCCACGAGATGATGTGGCCGGAGTCACCTAGTGCAG

["16800 fluorescence intensity (a.u.)", "6570 fluorescence intensity (a.u.)"]

Give binding signal for each of the items listed below.
1. TTGAGCAGCCTCCCTTCCCCGGCGAGCAGCCCCGCCGCCGCGGAGTCACCTAGTGCAG
2. ATGATGAGTAGGAGTTTGTGCAGGTGGACGGCGGTGGTGGCGGAGTCACCTAGTGCAG
3. TAAACAGGGCCCTACTGTCATCACGTCGATGTTGAGTTTACGGAGTCACCTAGTGCAG

1: 3720 fluorescence intensity (a.u.); 2: 3180 fluorescence intensity (a.u.); 3: 4070 fluorescence intensity (a.u.)

From: paper PMC7819943
